details: Crystal; DTA
Normal melting temperature values, listed per item
Measurement Type: Normal melting temperature (°C)

{"Compound": "CC(C)[C@@H](C)/C=C/[C@@H](C)[C@H]1CC[C@H]2C3=CC=C4C[C@@H](O)CC[C@]4(C)[C@H]3CC[C@]12C [(22E)-ergosta-5,7,22-trien-3β-ol]", "Measurement Type": "Normal melting temperature", "Unit Abbreviation": "°C", "Test Value": 158}
{"Compound": "CC[C@H](/C=C/[C@@H](C)[C@H]1CC[C@H]2[C@@H]3CC=C4C[C@@H](O)CC[C@]4(C)[C@H]3CC[C@]12C)C(C)C [(22E)-stigmasta-5,22-dien-3β-ol]", "Measurement Type": "Normal melting temperature", "Unit Abbreviation": "°C", "Test Value": 162}
{"Compound": "CC(C)CCC[C@@H](C)[C@H]1CC[C@H]2[C@@H]3CC=C4C[C@@H](O)CC[C@]4(C)[C@H]3CC[C@]12C", "Measurement Type": "Normal melting temperature", "Unit Abbreviation": "°C", "Test Value": 148}
{"Compound": "CC[C@H](CC[C@@H](C)[C@H]1CC[C@H]2[C@@H]3CC=C4C[C@@H](O)CC[C@]4(C)[C@H]3CC[C@]12C)C(C)C", "Measurement Type": "Normal melting temperature", "Unit Abbreviation": "°C", "Test Value": 138}
